test system: VC8 cell line; test: Clonogenic survival assay, VC8 cell line (lacks BRCA2); conditions: read-out: LC50
measured.endpoint: CC50 (nM)
Your answer is read as nM, so omit the unit and give the number.

Please tell me the measured CC50 for CN(C)Cc1ccc(-c2nc3cccc4c3n2CCNC4=O)cc1 ; system: VC8 cell line.
43

* * *

system: VC8 cell line; details: hamster, 24 h
measured.endpoint: CC50 (µM)
Your answer is read as µM, so omit the unit and give the number.

Answer with reported CC50 of CNCc1ccc(-c2[nH]c3cc(F)cc4c3c2CCNC4=O)cc1
0.012
